Catalogue of pKi values
# targetOrSystem: HPK1 (Homo sapiens (Human), UniProt Q92918)
# Sequence (Q92918 1-346 limits assumed): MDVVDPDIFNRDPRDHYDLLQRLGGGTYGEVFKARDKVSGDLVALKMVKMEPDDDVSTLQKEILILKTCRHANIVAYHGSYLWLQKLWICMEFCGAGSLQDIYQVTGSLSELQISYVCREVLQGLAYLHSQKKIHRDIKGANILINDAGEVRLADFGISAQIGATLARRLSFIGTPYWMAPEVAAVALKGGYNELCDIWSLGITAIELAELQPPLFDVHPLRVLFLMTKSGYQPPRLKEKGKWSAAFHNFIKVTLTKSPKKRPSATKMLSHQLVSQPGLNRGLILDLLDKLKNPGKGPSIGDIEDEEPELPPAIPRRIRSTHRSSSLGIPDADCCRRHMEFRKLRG
# procedureSummary: HPK1 Lantha binding assay ("Lanth")
# statedConditions: binding assays; Morrison Ki fit
Scale: pKi equals -log10([C]), with [C] in mol/L.

// worked examples, pKi included
- compound: "Cc1cc(C#N)nn1[C@H]1CC[C@@]2(CNc3ncc(-c4ccc(N)c(C(=O)N(C)C)c4F)c(Cl)c32)C1 (single isomer, unassigned) [Compound 162a]"
  pKi: 6.99
- compound: "Cc1cc(CC#N)nn1-c1cccc(-c2cnc3c(c2Cl)C2(CC=CC2)CN3)c1 [Compound 257]"
  pKi: 7.27
- compound: "CN(C)C(=O)c1c(N)ccc(-c2cnc3c(c2Cl)[C@]2(CC[C@H](C#N)C2)CN3)c1F (relative stereo) [Compound 91a]"
  pKi: 8.26
- compound: "CN(C)C(=O)c1c(N)ccc(-c2cnc3c(c2Cl)[C@@]2(CCC(=O)NC2)CN3)c1F (single isomer, unassigned) [Compound 123a]"
  pKi: 7.42
- compound: "CN(C)C(=O)c1c(N)ccc(-c2cnc3c(c2Cl)[C@]2(CC[C@H](n4cccn4)C2)CN3)c1F (relative stereo) [Compound 126a]"
  pKi: 7.73
- compound: "CC(=O)Nc1cc(C#N)cc2c(-c3cnc4c(c3)C3(CC3)CN4)cn(C)c12 [Compound 54]"
  pKi: 7.19

Requested read-out pKi, target or system HPK1 (Homo sapiens (Human), UniProt Q92918), entry Cn1cc(C2CCCCN2C(=O)c2cccc(-c3cnc4c(c3Cl)[C@]3(CC[C@H](O)CC3)CN4)c2F)cn1 (single isomer, unassigned) [Compound 246a]
7.99

----------
Reported Ki values, HPK1 (Homo sapiens (Human), UniProt Q92918).
Just the number please, in nM, no unit attached.

- compound: "Cn1cc([C@H]2CCCCN2C(=O)c2c(N)ccc(-c3cnc4c(c3Cl)C3(CC=CC3)CN4)c2F)cn1 (single isomer, unassigned) [Compound 239a]"
  propertyName: "Ki"
  unitDescriptor: "nM"
  experimentalResult: 0.89
- compound: "CN(CCN1CCOCC1)C(=O)c1c(N)ccc(-c2cnc3c(c2Cl)[C@]2(CC[C@](C)(C#N)C2)CN3)c1F (relative stereo) [Compound 272a]"
  propertyName: "Ki"
  unitDescriptor: "nM"
  experimentalResult: 30.8

Alright, here's another compound for you.
Requested read-out Ki, target or system HPK1 (Homo sapiens (Human), UniProt Q92918), entry Cn1cc(C2CCCCN2C(=O)c2c(N)ccc(-c3cnc4c(c3)[C@]3(CC[C@H](O)CC3)CN4)c2F)cn1 (single isomer, unassigned) [Compound 253a]
23.1

----------
Reported Ki values, HPK1 (Homo sapiens (Human)).
Provide the measurement as a number trailed by its unit.

// worked examples, Ki included
- compound: "CN(C)C(=O)c1c(N)ccc(-c2cnc3c(c2Cl)[C@]2(CC[C@H](n4ccccc4=O)C2)CN3)c1F (relative stereo) [Compound 196a]"
  targetOrSystem: "HPK1 (Homo sapiens (Human))"
  Ki: "97.6 nM"
- compound: "CC[C@@H]1C[C@]12CNc1ncc(-c3ccc(N)c(C(=O)N(C)C)c3F)cc12 (single isomer, unassigned) [Compound 243b]"
  targetOrSystem: "HPK1 (Homo sapiens (Human))"
  Ki: "10.4 nM"
- compound: "CN(C)C(=O)c1cccc(-c2cnc3c(c2Cl)[C@]2(CC[C@](C)(C(N)=O)C2)CN3)c1F (single isomer, unassigned) [Compound 195b]"
  targetOrSystem: "HPK1 (Homo sapiens (Human))"
  Ki: "6.23 nM"
- compound: "CN(C)C(=O)c1cccc(-c2cnc3c(c2Cl)C2(CC=CC2)CN3)c1 [Compound 226]"
  targetOrSystem: "HPK1 (Homo sapiens (Human))"
  Ki: "14 nM"
- compound: "Cc1cc(C)n([C@H]2CC[C@@]3(CNc4ncc(-c5ccc(N)c(C(=O)N(C)C)c5F)c(Cl)c43)C2)n1 (relative stereo) [Compound 163a]"
  targetOrSystem: "HPK1 (Homo sapiens (Human))"
  Ki: "69.3 nM"

I'd like to know its Ki. The compound in question is Cc1cnn([C@H]2CC[C@@]3(CNc4ncc(-c5ccc(N)c(C(=O)N(C)C)c5F)c(Cl)c43)C2)c1 (relative stereo) [Compound 125a]
3.56 nM

I'd like to know its Ki. The compound in question is Cc1c(CC#N)ccnc1-c1cccc(-c2cnc3c(c2Cl)[C@@]2(CC[C@@](C)(C(N)=O)C2)CN3)c1F (single isomer, unassigned) [Compound 267b]
0.39 nM

I'd like to know its Ki. The compound in question is CN(C)C(=O)c1c(N)ccc(-c2cnc3c(c2Cl)C2(CCC2)CN3)c1F [Compound 37]
2.2 nM

I'd like to know its Ki. The compound in question is Cc1ccn([C@H]2CC[C@@]3(CNc4ncc(-c5ccc(N)c(C(=O)N(C)C)c5F)c(Cl)c43)C2)n1 (relative stereo) [Compound 159a]
32.2 nM

I'd like to know its Ki. The compound in question is CN(C)C(=O)c1c(N)ccc(-c2cnc3c(c2Cl)[C@]2(CN3)C[C@H]2CO)c1F (single isomer, unassigned) [Compound 39d]
18.7 nM

----------
# targetOrSystem: UniProt:Q92918
pKi: −log10 of the molar value.
Please use true (1) whenever pKi is not below 7, and false (0) whenever it is.

- molecule: "Clc1c(-c2cnn(Cc3ccccc3)c2)cnc2c1C1(CC=CC1)CN2 [Compound 323]"
  discreteLabel: "false (0)"

Check the entry CN(C)C(=O)c1c(N)ccc(-c2cnc3c(c2)[C@]2(CN3)C[C@@H](C(N)=O)C2)c1F [Compound 97a] : does pKi equal or exceed 7?
true (1)

Check the entry Cn1cccc(-c2cccc(-c3cnc4c(c3Cl)C3(CC[C@@H](O)C3)CN4)c2)c1=O (single isomer, unassigned) [Compound 68b] : does pKi equal or exceed 7?
true (1)

Check the entry Cc1cc(C)n(-c2cccc(-c3cnc4c(c3Cl)C3(CC=CC3)CN4)c2)n1 [Compound 238] : does pKi equal or exceed 7?
true (1)

Check the entry CN(C)C(=O)c1c(N)ccc(-c2cnc3c(c2)[C@]2(CC[C@@H](O)CC2)CN3)c1F [Compound 111b] : does pKi equal or exceed 7?
false (0)

Check the entry CN(C)C(=O)c1c(N)ccc(-c2cnc3c(c2Cl)[C@]2(CC[C@@H](CN)CC2)CN3)c1F [Compound 258a] : does pKi equal or exceed 7?
false (0)

Check the entry CN(C)C(=O)c1c(N)ccc(-c2cnc3c(c2Cl)C2(CCC(N(C)CC(N)=O)C2)CN3)c1F (stereo not drawn) [Compound 75] : does pKi equal or exceed 7?
false (0)

Check the entry CN(C)C(=O)c1c(N)ccc(-c2cnc3c(c2Cl)[C@]2(CC[C@H](C(N)=O)CC2)CN3)c1F [Compound 235b] : does pKi equal or exceed 7?
true (1)

Check the entry CC[C@H]1C[C@@]12CNc1ncc(-c3ccc(N)c(C(=O)N(C)C)c3F)cc12 (single isomer, unassigned) [Compound 243a] : does pKi equal or exceed 7?
true (1)

Check the entry CN(C)C(=O)c1c(N)ccc(-c2cnc3c(c2Cl)[C@]2(CC[C@H](n4nccc4N)C2)CN3)c1F (relative stereo) [Compound 134a] : does pKi equal or exceed 7?
true (1)

Check the entry CS(=N)(=O)c1ccc2[nH]cc(-c3cnc4c(c3)C3(CC3)CN4)c2c1 (stereo not drawn) [Compound 331] : does pKi equal or exceed 7?
false (0)

----------
# targetOrSystem: HPK1 (Homo sapiens (Human), UniProt Q92918)
propertyName: Ki

- compound: "CN(C)C(=O)c1c(N)ccc(-c2cnc3c(c2Cl)[C@]2(CC[C@@H](CO)C2)CN3)c1F [Compound 259c]"
  experimentalResult: "3 nM"

Requested read-out Ki, target or system HPK1 (Homo sapiens (Human), UniProt Q92918), entry CNC(=O)[C@H]1CC[C@@]2(CNc3ncc(-c4ccc(N)c(C(=O)N(C)C)c4F)c(Cl)c32)C1 (relative stereo) [Compound 98a]
75.6 nM

Requested read-out Ki, target or system HPK1 (Homo sapiens (Human), UniProt Q92918), entry Cc1nccn1[C@H]1CC[C@@]2(CNc3ncc(-c4ccc(N)c(C(=O)N(C)C)c4F)c(Cl)c32)C1 (relative stereo) [Compound 167a]
163 nM

Requested read-out Ki, target or system HPK1 (Homo sapiens (Human), UniProt Q92918), entry Cc1noc([C@@]2(C)CC[C@@]3(CNc4ncc(-c5ccc(N)c(C(=O)N(C)C)c5F)c(Cl)c43)C2)n1 (relative stereo) [Compound 156a]
2.63 nM

Requested read-out Ki, target or system HPK1 (Homo sapiens (Human), UniProt Q92918), entry CO[C@H]1C[C@@]2(CNc3ncc(-c4ccc(N)c(C(=O)N(C)C)c4F)c(Cl)c32)C1 [Compound 80b]
129 nM

Requested read-out Ki, target or system HPK1 (Homo sapiens (Human), UniProt Q92918), entry OCc1cccc(-c2cnc3c(c2Cl)C2(CC=CC2)CN3)c1F
478 nM

Requested read-out Ki, target or system HPK1 (Homo sapiens (Human), UniProt Q92918), entry Fc1cccc2[nH]cc(-c3cnc4c(c3)C3(CC3)CN4)c12
492 nM
